- Test system: HCoV-OC43
- Parameters: species or system RD; HTS, protection from HCoV-OC43 induced cell death, luminescent cell viability (CellCounting-Lite 2.0), inhibition rate
- assay conditions: 24 h post infection, 1 h compound pre-incubation; 10 µM; inhibitor
Out of some 3,300 compounds screened, about 60 (2%) showed an effect of 50% or more. This is one part of a sample in which strong results are shown more often than they occur.
Documented OC43 Inhibition rate across a set of compounds
assay endpoint: OC43 Inhibition rate (%)

[[record]]
compound = "CC(=O)c1cc2c(CO)cc(O)cc2oc1=O"
assay_value = -0.4

[[record]]
compound = "c1cncnc1"
assay_value = -0.5

[[record]]
compound = "C[S+]([O-])CCCC/C(=N\\OS(=O)(=O)O)S[C@@H]1O[C@H](CO)[C@@H](O)[C@H](O)[C@H]1O (stereo partly drawn)"
assay_value = -2.3

[[record]]
compound = "C[C@@H](O)CO [(R)-(-)-1,2-Propanediol]"
assay_value = -0.2

[[record]]
compound = "C/C=C(/C)C(=O)O[C@H]1C(C)=C[C@]23C(=O)[C@@H](C=C(CO)[C@@H](O)[C@]12O)[C@H]1[C@@H](C[C@H]3C)C1(C)C [Ingenol Mebutate]"
assay_value = 1.1

[[record]]
compound = "CC1=C[C@]23C(=O)[C@@H](C=C4COC(C)(C)O[C@H]4C2(O)[C@H]1O)[C@H]1[C@@H](C[C@H]3C)C1(C)C (stereo partly drawn) [Ingenol-5,20-acetonide]"
assay_value = -2.5

[[record]]
compound = "COc1cc(-c2c3c(c(O)c4cc5c(cc24)OCO5)COC3=O)cc(OC)c1OC [Tetradehydropodophyllotoxin]"
assay_value = 1

[[record]]
compound = "Nc1nc(O)c2[nH]nnc2n1"
assay_value = 54.4

[[record]]
compound = "C[S@@+]([O-])CCCCN=C=S [(R)-sulforaphane]"
assay_value = 71.2

[[record]]
compound = "C=C1[C@H](OC(=O)/C=C(\\C)CC)C[C@@H](C(C)C)[C@@H]2[C@@H]([C@@H](C)OC(C)=O)C(=O)C[C@@H]12"
assay_value = 60.7

[[record]]
compound = "COc1c(C)c2c(c(O)c1C/C=C(\\C)CCC(=O)O)C(=O)OC2"
assay_value = 36.2

[[record]]
compound = "COc1cc2oc(-c3ccccc3)cc(=O)c2c(OC)c1OC"
assay_value = 0.1

[[record]]
compound = "C[C@@H]1CC[C@@]2(OC1)O[C@H]1C[C@H]3[C@@H]4CC=C5C[C@@H](O[C@@H]6O[C@H](CO)[C@@H](O)[C@H](O[C@@H]7O[C@H](CO)[C@@H](O)[C@H](O)[C@H]7O)[C@H]6O[C@@H]6O[C@@H](C)[C@H](O)[C@@H](O)[C@H]6O)CC[C@]5(C)[C@H]4CC[C@]3(C)[C@H]1[C@@H]2C"
assay_value = 7

[[record]]
compound = "CC1=CC(=O)[C@@H]2C[C@H]1C2(C)C"
assay_value = -0.2

[[record]]
compound = "COc1c2c(cc3oc(CO)cc(=O)c13)O[C@H](C(C)(C)O)C2"
assay_value = 0.3


---

- Tested on: HCoV-OC43
- Design: species or system RD; HTS, protection from HCoV-OC43 induced cell death, luminescent cell viability (CellCounting-Lite 2.0), inhibition rate
- assay conditions: 24 h post infection, 1 h compound pre-incubation; 10 µM; inhibitor
Among all 3,300 compounds or so, about 60 (2%) showed an effect of 50% or more. For the sample, strong results were picked, then their nearest neighbours and some compounds at random. Peptide text beside a SMILES is read from it.
Documented OC43 Inhibition rate across a set of compounds
assay endpoint: OC43 Inhibition rate (%)

[[record]]
compound = "Oc1cc(O)cc(/C=C/c2c(O)cccc2O)c1 [Gnetol]"
unit_descriptor = "%"
assay_value = -1

[[record]]
compound = "CCCCCCCCCCCCCCCCCC(=O)NCc1ccccc1 [N-Benzyloctadecanamide]"
unit_descriptor = "%"
assay_value = -0.1

[[record]]
compound = "CCC(C)(C)C(=O)O[C@H]1C[C@@H](C)C=C2C=C[C@H](C)[C@H](CC[C@@H](O)C[C@@H](O)CC(=O)O)[C@H]21 [Simvastatin acid (ammonium)]"
unit_descriptor = "%"
assay_value = 5

[[record]]
compound = "CC(C)=CCC[C@](C)(O[C@@H]1O[C@H](CO)[C@@H](O)[C@H](O)[C@H]1O)[C@H]1CC[C@]2(C)[C@@H]1[C@H](O)C[C@@H]1[C@@]3(C)CC[C@H](O)C(C)(C)[C@@H]3[C@@H](O[C@@H]3O[C@H](CO)[C@@H](O)[C@H](O)[C@H]3O[C@@H]3OC[C@@H](O)[C@H](O)[C@H]3O)C[C@]12C [Notoginsenoside R1]"
unit_descriptor = "%"
assay_value = 0.5

[[record]]
compound = "CC(C)[C@@H]1NC(=O)CNC(=O)[C@H](C)NC(=O)[C@H](Cc2c[nH]c3ccccc23)NC(=O)[C@H](C)NC1=O [Segetalin B] (cyclo(AGVAW))"
unit_descriptor = "%"
assay_value = -0.5

[[record]]
compound = "CCCCC/C=C\\C/C=C\\CCCCCCCC(=O)NCc1ccccc1 [N-Benzyllinoleamide]"
unit_descriptor = "%"
assay_value = 40

[[record]]
compound = "CCCCCCCC/C=C\\CCCCCCCC(=O)NCc1ccccc1 [N-Benzyloleamide]"
unit_descriptor = "%"
assay_value = 56.9


Hey, just so you know, these numbers are from paper PMC12431657.
